- procedureText: Selectivity index, ratio of IC50 for human AChE to IC50 for human BuChe
quantityKind: Selectivity Index

CO[C@H]1C[C@H]2C(=C[C@@H]1OC(=O)c1ccc(C)c([N+](=O)[O-])c1)[C@H]1CN2Cc2cc3c(cc21)OCO3 :: < 0.04
CO[C@H]1C=C2[C@H]3CN(Cc4cc5c(cc43)OCO5)[C@H]2C[C@@H]1OC(=O)N1CCCCC1 :: > 15.3

Continue with the next molecule.
Ask: Query: Selectivity Index; subject: CO[C@H]1C[C@H]2C(=C[C@@H]1OC(=O)c1ccc(Cl)c([N+](=O)[O-])c1)[C@H]1CN2Cc2cc3c(cc21)OCO3
Result: < 0.02

src = ChEMBL document CHEMBL5029165
